Hey, just so you know, these numbers are from patent US20260008852A1.

# Target system: T1, His-tagged mouse B7-H3 (mouse, UniProt Q8VE98 29-244, limits assumed)
# T1 construct: Bought His-tagged protein coated on the ELISA plate; also called mu B7-H3; murine B7-H3
# T1 sequence (looked up): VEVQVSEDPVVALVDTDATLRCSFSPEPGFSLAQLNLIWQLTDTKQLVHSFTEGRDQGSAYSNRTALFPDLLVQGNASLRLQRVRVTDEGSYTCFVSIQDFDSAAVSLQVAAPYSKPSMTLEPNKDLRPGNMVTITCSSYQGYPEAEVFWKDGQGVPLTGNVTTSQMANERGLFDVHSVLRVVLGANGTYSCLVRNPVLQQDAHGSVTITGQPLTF
# Assay protocol: ELISA, coated His-tagged antigen, scFv-Fc 1 ug/ml
Measured endpoint: ELISA OD450 @ 1 ug/ml (OD450)
Return type: number; implicit unit OD450.

Worked cases, ELISA OD450 @ 1 ug/ml given:
Binder	Numeric result
40579p1.H6 (scFv, V domains shown, Tested as scFv-Fc (Expi293 supernatant)) VH: EVQLLESGGGLVQPGGSLRLSCAASGFTVNNAWMSWVRQAPGKGLEWVSAISYGGSIYYADSVKGRFTISRDNSKNTLYLQMNSLRAEDTAVYYCAKHRSTTYNGMDVWGQGTTVTVSS VL: EIVLTQSPGTLSLSPGERATLSCRASQSVGSFLAWYQQKPGQAPRLLIYGANTRAAGIPDRFRGSGNGTDFTLTISSLQSEDFAVYYCQQYYDWPPLTFGGGTKVEIK	1.17
40633p1.1.G5 (scFv, V domains shown, Tested as scFv-Fc (Expi293 supernatant)) VH: EVQLLESGGGLVQPGGSLRLSCAASGFIVNYYGMSWVRQPPGKGLEWVSAIKQDGSEKYYADSVKGRFTISRDNSKTTLYLQMNSLRAEDTAVYYCARHWNDYSNGMNVWGQGTTVTVSS VL: QSVLTQPPSASGTPGQRVTISCSGSWSNIGSYNSHWYQKLPGTAPKLLIYTTDRRPSGVPDRFSGSKSGTSASLAISGLQSEDEADYYCGTWDDSLNVWVFGGGTKLTVL	0.257

Shifting focus to the binder that follows.
Request the reported ELISA OD450 @ 1 ug/ml associated with 40633p1.1.A7 (scFv, V domains shown, Tested as scFv-Fc (Expi293 supernatant)) VH: EVQLLESGGGLVQPGGSLRLSCAASGFTVSYYGMSWVRQAPGKGLEWVSAIKQDGSEKYYADSVKGRFTISRDNSKNTLYLQMNSLRAEDTAVYYCARHWNDYSNAMNVWGQGTTVTVSS VL: QSVLTQPPSASGTPGQRVTISCSGSTSNIGRESVYWYQQLPGTAPKLLIYTIDQRPSGVPDRFSGSKSGTSASLAISGLQSEDEAVYYCASWDASLNGWVFGGGTKLTVL
1.97
